biological target: NR1/NR2B (Rattus norvegicus, UniProt P35439+Q00960); assay: Two electrode voltage clamp, Xenopus oocytes expressing recombinant NR1/NR2B; type: cell-based; conditions: at 100 μM; read-out: 2B percent effect at the maximum tested concentration
Sequence (Q00960 27-1482, other chains not shown): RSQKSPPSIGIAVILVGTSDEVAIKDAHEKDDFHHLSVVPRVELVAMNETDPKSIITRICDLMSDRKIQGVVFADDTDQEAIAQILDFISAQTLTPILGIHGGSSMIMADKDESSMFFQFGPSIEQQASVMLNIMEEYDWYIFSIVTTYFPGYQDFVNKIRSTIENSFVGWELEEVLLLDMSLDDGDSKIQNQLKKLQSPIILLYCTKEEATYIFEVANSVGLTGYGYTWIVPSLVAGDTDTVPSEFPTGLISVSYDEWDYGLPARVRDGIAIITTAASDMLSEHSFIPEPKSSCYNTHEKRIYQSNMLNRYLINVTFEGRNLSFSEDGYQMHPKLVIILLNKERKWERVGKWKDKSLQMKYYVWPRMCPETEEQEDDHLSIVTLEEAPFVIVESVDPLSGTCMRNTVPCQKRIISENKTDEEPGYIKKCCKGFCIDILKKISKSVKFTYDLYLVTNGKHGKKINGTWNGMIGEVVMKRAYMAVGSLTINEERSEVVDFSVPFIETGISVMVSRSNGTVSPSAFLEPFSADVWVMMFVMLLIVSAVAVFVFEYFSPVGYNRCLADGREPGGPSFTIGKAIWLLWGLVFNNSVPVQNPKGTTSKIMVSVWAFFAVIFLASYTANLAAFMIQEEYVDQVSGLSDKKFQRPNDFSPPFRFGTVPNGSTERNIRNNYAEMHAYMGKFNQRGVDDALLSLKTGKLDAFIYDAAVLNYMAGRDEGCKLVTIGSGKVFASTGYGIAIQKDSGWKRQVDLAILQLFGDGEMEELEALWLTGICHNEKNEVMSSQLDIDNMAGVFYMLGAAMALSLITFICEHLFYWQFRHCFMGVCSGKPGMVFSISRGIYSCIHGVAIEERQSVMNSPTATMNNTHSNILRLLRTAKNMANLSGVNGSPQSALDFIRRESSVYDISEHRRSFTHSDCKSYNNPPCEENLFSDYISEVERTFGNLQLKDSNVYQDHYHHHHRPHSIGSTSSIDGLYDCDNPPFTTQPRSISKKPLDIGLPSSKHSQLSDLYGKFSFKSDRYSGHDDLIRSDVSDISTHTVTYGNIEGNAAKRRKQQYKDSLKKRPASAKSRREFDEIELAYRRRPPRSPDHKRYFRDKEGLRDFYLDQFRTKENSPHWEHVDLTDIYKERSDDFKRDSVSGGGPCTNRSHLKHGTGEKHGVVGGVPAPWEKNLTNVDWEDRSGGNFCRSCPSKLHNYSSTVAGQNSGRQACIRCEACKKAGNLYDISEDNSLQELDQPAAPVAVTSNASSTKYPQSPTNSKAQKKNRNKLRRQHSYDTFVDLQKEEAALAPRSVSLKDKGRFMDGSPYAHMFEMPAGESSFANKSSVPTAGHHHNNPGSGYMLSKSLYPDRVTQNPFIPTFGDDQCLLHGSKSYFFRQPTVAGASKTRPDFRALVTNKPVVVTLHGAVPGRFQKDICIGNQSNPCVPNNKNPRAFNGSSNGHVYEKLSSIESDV
remaining activity at 100 µM for assorted compounds

CCN(CC)C(=O)Nc1ccc(C(=O)Nc2cccc3ccccc23)cc1 [1063-11] : 88%
CCCCN(CCCC)C(=O)Oc1ccc(C(=O)Nc2cccc3ccccc23)cc1 [1063-8] : 88%
CCN(CC)C(=O)Oc1ccccc1C(=O)Nc1cccc2ccccc12 [1063-25] : 88%
CCN(CC)C(=S)Oc1ccc(C(=O)Nc2ccc(F)cc2)cc1 [compound 1379] : 88%
O=C(Nc1cccc2ccccc12)c1ccc(OC(=O)C2CC2)cc1 [1063-10] : 92%

For the next question, use this compound.
Briefly, remaining activity at 100 µM measured for O=C(Nc1cccc2ccccc12)c1ccc(Oc2nc(-c3ccccc3)cs2)cc1 [1063-22] : 91%

----------
biological target: NR1/NR2A (Rattus norvegicus, UniProt P35439+Q00959); experiment: Two electrode voltage clamp, Xenopus oocytes expressing recombinant NR1/NR2A; type: cell-based; conditions: logistic fit, minimum forced to 0; read-out: 2A IC50
Sequence (Q00959 23-1464, other chains not shown): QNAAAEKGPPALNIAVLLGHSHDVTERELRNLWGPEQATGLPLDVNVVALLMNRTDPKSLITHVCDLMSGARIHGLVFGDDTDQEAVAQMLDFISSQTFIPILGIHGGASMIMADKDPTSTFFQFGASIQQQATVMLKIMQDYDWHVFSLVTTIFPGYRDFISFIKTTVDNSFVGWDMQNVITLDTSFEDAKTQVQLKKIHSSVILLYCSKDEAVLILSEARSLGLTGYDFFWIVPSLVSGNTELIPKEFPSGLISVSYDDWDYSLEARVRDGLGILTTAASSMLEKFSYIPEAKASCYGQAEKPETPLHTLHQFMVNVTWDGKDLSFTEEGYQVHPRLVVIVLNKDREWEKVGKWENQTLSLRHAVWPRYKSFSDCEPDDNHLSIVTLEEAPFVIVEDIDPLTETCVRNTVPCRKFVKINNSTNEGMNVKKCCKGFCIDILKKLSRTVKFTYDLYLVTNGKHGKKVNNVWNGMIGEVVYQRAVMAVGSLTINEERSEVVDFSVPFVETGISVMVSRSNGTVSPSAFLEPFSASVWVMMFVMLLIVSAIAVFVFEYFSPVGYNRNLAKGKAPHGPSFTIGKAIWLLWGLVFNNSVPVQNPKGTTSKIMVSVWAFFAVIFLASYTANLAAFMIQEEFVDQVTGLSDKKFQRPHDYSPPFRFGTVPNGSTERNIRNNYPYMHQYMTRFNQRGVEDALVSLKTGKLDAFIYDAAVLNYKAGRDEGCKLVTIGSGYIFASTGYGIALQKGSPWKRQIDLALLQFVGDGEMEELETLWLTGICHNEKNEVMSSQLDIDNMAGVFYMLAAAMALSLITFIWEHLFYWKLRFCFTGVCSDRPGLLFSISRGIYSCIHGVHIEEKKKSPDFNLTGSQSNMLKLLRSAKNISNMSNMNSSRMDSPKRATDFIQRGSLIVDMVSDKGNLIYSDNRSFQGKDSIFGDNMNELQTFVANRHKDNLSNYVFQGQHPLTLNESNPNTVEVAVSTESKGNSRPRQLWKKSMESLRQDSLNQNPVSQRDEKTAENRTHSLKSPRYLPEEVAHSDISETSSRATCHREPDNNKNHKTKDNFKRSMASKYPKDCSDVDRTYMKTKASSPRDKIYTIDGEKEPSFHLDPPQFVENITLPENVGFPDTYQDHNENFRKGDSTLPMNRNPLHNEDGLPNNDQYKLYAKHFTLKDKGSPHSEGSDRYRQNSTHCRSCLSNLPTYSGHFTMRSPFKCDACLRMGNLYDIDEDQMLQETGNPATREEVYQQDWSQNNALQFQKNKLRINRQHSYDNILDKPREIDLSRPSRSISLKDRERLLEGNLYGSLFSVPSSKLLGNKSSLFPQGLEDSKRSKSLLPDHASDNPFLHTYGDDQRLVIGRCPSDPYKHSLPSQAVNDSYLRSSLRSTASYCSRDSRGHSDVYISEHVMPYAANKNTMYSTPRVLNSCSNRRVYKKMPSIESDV
OBSERVATION TYPE: IC50
Number first, unit second: that is the form wanted.

Observe how each entry below is paired with its result.
O=C(Nc1cccc2ccccc12)c1ccc2oc(=O)[nH]c2c1 : 550 µM
O=C(O)CCC(=O)N1N=C(c2c(-c3ccccc3)c3cc(Br)ccc3[nH]c2=O)CC1c1ccccc1Cl (stereo not shown) : 79 µM
Cc1ccc(C2CC(c3c(-c4ccccc4)c4cc(Br)ccc4[nH]c3=O)=NN2C(=O)CCC(=O)O)cc1 (stereo not shown) : 140 µM

For the next question, use this compound.
Briefly, IC50 measured for O=C(O)CCC(=O)N1N=C(c2c(-c3ccccc3)c3cc(Cl)ccc3[nH]c2=O)CC1c1ccc(Br)cc1 (stereo not shown) : 123 µM

----------
biological target: NR1/NR2D (Rattus norvegicus, UniProt P35439+Q62645); test: Two electrode voltage clamp, Xenopus oocytes expressing recombinant NR1/NR2D; type: cell-based
Sequence (Q62645 28-1323, other chains not shown): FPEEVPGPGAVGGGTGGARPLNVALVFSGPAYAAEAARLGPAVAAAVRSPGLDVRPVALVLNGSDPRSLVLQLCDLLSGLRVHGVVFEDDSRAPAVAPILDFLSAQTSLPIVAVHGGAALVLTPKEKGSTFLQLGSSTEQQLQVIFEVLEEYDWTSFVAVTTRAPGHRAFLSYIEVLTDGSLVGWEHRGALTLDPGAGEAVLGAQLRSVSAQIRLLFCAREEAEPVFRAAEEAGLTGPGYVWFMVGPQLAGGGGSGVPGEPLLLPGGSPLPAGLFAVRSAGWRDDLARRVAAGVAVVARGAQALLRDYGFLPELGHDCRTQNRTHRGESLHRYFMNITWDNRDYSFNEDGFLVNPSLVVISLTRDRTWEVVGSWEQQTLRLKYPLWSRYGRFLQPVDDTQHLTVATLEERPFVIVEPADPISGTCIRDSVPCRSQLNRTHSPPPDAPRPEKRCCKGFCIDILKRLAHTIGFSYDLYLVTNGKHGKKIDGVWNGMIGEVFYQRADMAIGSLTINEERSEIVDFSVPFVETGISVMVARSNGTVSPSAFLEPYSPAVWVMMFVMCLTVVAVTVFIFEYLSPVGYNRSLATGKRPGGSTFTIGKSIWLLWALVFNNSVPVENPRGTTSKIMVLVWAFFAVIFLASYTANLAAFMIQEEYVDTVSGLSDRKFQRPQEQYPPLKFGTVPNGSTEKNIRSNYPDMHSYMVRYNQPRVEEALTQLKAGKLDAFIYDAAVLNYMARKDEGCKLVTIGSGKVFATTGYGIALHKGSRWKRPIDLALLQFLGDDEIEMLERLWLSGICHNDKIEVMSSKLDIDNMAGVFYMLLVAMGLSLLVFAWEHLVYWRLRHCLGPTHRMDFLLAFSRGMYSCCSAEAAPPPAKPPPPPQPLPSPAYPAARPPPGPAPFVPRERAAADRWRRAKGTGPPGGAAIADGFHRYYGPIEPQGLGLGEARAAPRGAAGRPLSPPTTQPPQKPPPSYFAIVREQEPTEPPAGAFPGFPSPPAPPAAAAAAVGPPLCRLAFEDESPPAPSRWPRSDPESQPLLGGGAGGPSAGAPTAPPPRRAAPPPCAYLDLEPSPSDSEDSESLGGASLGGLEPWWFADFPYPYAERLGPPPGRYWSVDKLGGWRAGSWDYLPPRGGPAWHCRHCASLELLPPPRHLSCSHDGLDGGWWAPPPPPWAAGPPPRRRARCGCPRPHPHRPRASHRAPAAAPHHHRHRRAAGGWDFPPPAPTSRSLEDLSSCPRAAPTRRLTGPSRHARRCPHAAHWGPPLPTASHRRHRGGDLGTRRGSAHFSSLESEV
# note: exactly 20 µM is not below, so it is f; use t for IC50 strictly under it

CC(C)N(C(=O)Oc1ccc(C(=O)Nc2ccc3cc[nH]c3c2)cc1)C(C)C [1063-15] : t
CCN(CC)C(=O)Oc1ccc(C(=O)Nc2cc(C)cc(C)c2)cc1 [1063-17] : t
CC(C)N(C(=O)Oc1ccc(C(=O)Nc2ccc3[nH]ccc3c2)cc1)C(C)C [1063-16] : f
CCN(CC)C(=O)Oc1ccc(C(=O)Nc2ccc3c(c2)CCCC3)cc1 [1063-19] : f

Switching to the query record.
Req: Below 20 µM on IC50? Entry CCN(CC)C(=O)Oc1ccc(C(=O)Nc2cc(C)cc3c2NCC3)cc1 [1063-32]
Resp: t
